- MEASUREMENT_PROTOCOL: NCI Yeast Anticancer Drug Screen. Data for the mec2-1 strain (AID 157)
- EXPERIMENTAL_PARAMETERS: S. cerevisiae mec2-1 strain, at 50.0 µM, active compounds read high
This is part of a sample that, as a whole, favours compounds with a hit. Of some 79,000 tested, about 15% had one in any assay.
ASSAY_READOUT: growth inhibition (%)
One number for each entry, in %.

Provide growth inhibition values for the following items, in order.
1. CNC(=O)O/N=C(\CN=[N+]=[N-])C(C)(C)C
2. Nc1nc(-c2cccc(S(=O)(=O)F)c2)cs1
3. C1CC[N-]CC1.CN(C)P(=O)(N(C)C)N(C)C.OO.OO.[O]=[Mo]
4. CC1OC(n2cc(C(N)=O)c3c(N)ncnc32)C(O)C1O (centres undefined)
5. CCC(=O)c1ccc(N)cc1

1: 3.55; 2: 20.8; 3: -16; 4: 20.9; 5: 4.45

List the reported growth inhibition of each compound below.
1. O=Cc1ccccc1O.[Nd]
2. COc1ccc(/C=C/C=C2C(=O)NC(=S)NC2=O)cc1
3. CCCCN1C(=O)CC(=O)N(c2ccccc2)C1=O
4. COc1ccc(Oc2cc3c(cc2OC)CCN(C)C3)cc1
5. Cc1cc[n+](C)c(Cc2ccccc2)c1C
6. CCCCCCCC/C=C\CCCCCCCC(=O)OCC(COC(=O)CCCCCCC/C=C\CCCCCCCC)OC(=O)N(CCCl)CCCl

1: -33.6; 2: 4.55; 3: -28; 4: 7.7; 5: -11.1; 6: -9.25

Batch request: growth inhibition per item, same order as input.
1. COc1cc([As](=O)(O)O)c(OC)cc1N
2. C[n+]1ccc2ccccc2c1-c1c2ccccc2cc[n+]1C
3. O=C1CCCCC1CN1CCCCC1 (centres undefined)
4. O=C(COc1cccc(Cl)c1Cl)Nc1ccc[n+](Cc2ccc(S(=O)(=O)F)cc2)c1

1: 6.6; 2: 3.65; 3: -3.2; 4: 0.15

Could I get growth inhibition for every one of these entries?
1. CN(C)C(=O)Oc1ccc([N+](=O)[O-])cc1OC(=O)N(C)C
2. COc1cc2c(ccc3c4cc(OC)c(OC)cc4c[n+](C)c23)cc1O
3. CCCCCCCCCCC(=O)O
4. O=[N+]([O-])c1ccc(P(=O)(O)O)cc1
5. NC(Cc1cccc(NP(=S)(NCCO)N2CC2)c1)C(=O)O (centres undefined)
6. CCC1C(=O)NC(=O)N(c2ccccc2)C1=O (centres undefined)
7. O=c1ccn(C2OC(CO)C(O)C2[Se]c2ccccc2)c(=O)[nH]1 (centres undefined)
8. COc1ccc(C(=O)O)cc1[N+](=O)[O-] (tested in a mixture with another compound)

1. -5.25
2. -17.9
3. -2.2
4. -27.7
5. 15.1
6. -8.3
7. -9.45
8. 4.45

Field growth inhibition (entry C/C(=N\N=C(N)N)C(CN(C)C)C(c1ccccc1)c1c(O)c2ccccc2oc1=O (centres undefined) ) reads 23.4

====

- MEASUREMENT_PROTOCOL: NCI Yeast Anticancer Drug Screen. Data for the bub3 strain (AID 167)
- EXPERIMENTAL_PARAMETERS: S. cerevisiae bub3 mutant strain, at 50.0 µM, active compounds read high
The panel holds about 79,000 compounds, 15% with a hit somewhere; the sample as a whole holds those more often.
Assign label 1 whenever growth inhibition does not fall below 10%; assign label 0 whenever it does.

Solved entries (count: 6):
Test whether the compound "S=P(NCc1cccc(CNP(=S)(N2CC2)N2CC2)c1)(N1CC1)N1CC1" records growth inhibition of 10% or higher.
label 0

Form field: growth inhibition at least 10%? Entry: "CCOC(=S)S.[Cu+2]"
label 0

Record "CCOC(=O)C(CC)(CC)C(=O)OCC" ; criterion: growth inhibition no lower than 10%. Met?
label 0

Item CCC(CCl)NC(CC(C)C)CC(C)C (stereo not drawn) with growth inhibition of 10% or above?
label 0

Could you please find out whether OC(Cc1ccccn1)C(Cl)(Cl)Cl (stereo not drawn) has growth inhibition that meets 10% or exceeds it?
label 0

growth inhibition >= 10% for "O=C(CC(=O)C(F)(F)F)c1cccs1" ?
label 1

***
Does COc1ccc2c3c1OC1C(OC)(OC)CC4(C=C2)CN(C)CCC314 (stereo not drawn) have a reported growth inhibition of at least 10%?
label 0

I'd appreciate it if you could say whether "CS/C([S-])=N/N=C\c1ccccn1.CS/C([S-])=N/N=C\c1ccccn1.[Ni+2]" has growth inhibition at least equal to 10%.
label 0

Check if growth inhibition >= 10% (inclusive). Item: "ICc1nc2ccccc2[nH]1"
label 0

Kindly determine if growth inhibition recorded for "COc1ccc(N)cc1N" is above or exactly 10%.
label 1

Check if growth inhibition >= 10% (inclusive). Item: CCCCCCCCP(=O)(O)OP(=O)(O)OCC1OC(n2ccc(N)nc2=O)C(O)C1O (stereo not drawn)
label 0

Does the reported growth inhibition for "CCN(CC)CCn1c(=O)c2ccccc2n(CCN(CC)CC)c1=O" fall at or above the 10% mark?
label 1

Evaluate NCCCC(N)P(=O)(O)O (stereo not drawn) : growth inhibition at minimum 10%?
label 0

For this compound, is measured growth inhibition 10% or higher? "CC(=O)Nc1cc([As](C)(=O)O)ccc1O"
label 0
